In this section, each of the molecules is paired with its reported max response.
Test system: HEK293
protocol_notes: Cytotoxic Profiling of Annotated Libraries Using Quantitative High-Throughput Screening (AID 1296008); note: % is set by controls: 0 for no effect and ±100 for the full control effect; nearly all actives have a fitted effect of over 60% in size
assay_setup: Five cell lines viability, CellTiter-Glo ATP luminescence, 48-72 h; stronger effect = lower value
Records with an inconclusive call do not appear. Active and inactive are the calls of the source. Calls come from the whole dose curve; as a rule, active = well fitted inhibition curve with a large enough effect; inconclusive = small, poorly fitted or top-dose-only effect; inactive = flat fitted curve, though single readings scatter.
result_type: max response

Cc1c(-c2ccnn2C)cc(C(=O)NCc2ccc(S(C)(=O)=O)cn2)c(=O)n1-c1cccc(C(F)(F)F)c1 | -6.6% (inactive) [middle of 4 runs]
CCN[C@@H]1C[C@H](N)[C@@H](O[C@H]2OC(CN)=CC[C@H]2N)[C@H](O)[C@H]1O[C@H]1OC[C@](C)(O)[C@H](NC)[C@H]1O | -0.314% (inactive)
CCC[C@@H]1C[C@@H](C(=O)N[C@@H]([C@H]2O[C@H](SC)[C@H](OP(=O)(O)O)[C@@H](O)[C@H]2O)[C@H](C)Cl)N(C)C1 | -4.58% (inactive)
N#Cc1ccc2[nH]c(O)c(-c3ccc(CN4CCOCC4)cn3)c2c1 | -0.745% (inactive)

----------
System: NIH3T3
protocol_notes: Cytotoxic Profiling of Annotated Libraries Using Quantitative High-Throughput Screening (AID 1296008); note: % is set by controls: 0 for no effect and ±100 for the full control effect; nearly all actives have a fitted effect of over 60% in size
assay_setup: Five cell lines viability, CellTiter-Glo ATP luminescence, 48-72 h; stronger effect = lower value
Inconclusive results are not listed. The source made the active and inactive calls. The call rests on the fitted dose curve; in most records, active means well fitted inhibition curve with a large enough effect; inconclusive means small, poorly fitted or top-dose-only effect; inactive means flat fitted curve, though single readings scatter.
result_type: max response

COC(=O)C1=CO[C@@H](O[C@@H]2O[C@H](CO)[C@@H](O)[C@H](O)[C@H]2O)[C@@H]2[C@@H](C(=O)OC)[C@@H](O)C(O)[C@H]12 (stereo not given in full) | 1.13% (inactive)
CC1CCC2(C)C(CC(O)C(O)C23CO3)C1(C)CCC1=CC(=O)OC1O (stereo not given) | 3.09% (inactive)
CC1(C)NC2N(C1=O)c1ccccc1C2(O)CC(C(=O)O)n1cnc2ccccc2c1=O (stereo not given) | -5.13% (inactive)
c1ccc(Nc2nc3c(s2)CCCc2[nH]ncc2-3)nc1 | 3.95% (inactive)
CCCOc1ccn2c(C(C)=O)cc(-c3ccccc3S(C)(=O)=O)c2c1 | -3.04% (inactive)
C/C=C(\C)C(=O)O[C@H]1[C@@H](O[C@]2(COC(=O)CC(C)C)O[C@H](COC(=O)C(C)C)[C@@H](OC(C)=O)[C@@H]2O)O[C@H](COC(C)=O)[C@@H](O)[C@@H]1O | 0.154% (inactive)
CC(=O)N[C@H]1[C@H](O[C@H]2CC[C@@]3(C)C(CC[C@]4(C)C3CC=C3C5CC(C)(C)CC[C@]5(C(=O)O)[C@H](O[C@@H]5O[C@H](CO)[C@@H](O)[C@H](O)[C@H]5O)C[C@]34C)C2(C)C)O[C@H](CO[C@@H]2OC[C@H](O)[C@H](O)[C@H]2O[C@@H]2OC[C@@H](O)[C@H](O)[C@H]2O)[C@@H](O)[C@@H]1O (stereo not given in full) | -4.54% (inactive)
COC(=O)C1=COC(O[C@@H]2O[C@H](CO)[C@@H](O)[C@H](O)[C@H]2O)/C(=C\COC(=O)c2ccc(OC3OC(CO)C(O)C(O)C3O)c(OC)c2)C1CC(=O)OCCc1ccc(O)cc1 (stereo not given in full) | 1.16% (inactive)
O=C(NCC(=O)N1CC[C@H](NC2CCC(O)(c3ccc(-c4ncccn4)cn3)CC2)C1)c1cccc(C(F)(F)F)c1 (stereo not given in full) | 3.11% (inactive)
CC(C)(O)C1CCC2(C)C3C(O)C4C(C13)C42CO (stereo not given) | 0.322% (inactive)
CCOc1ccc(C(Nc2ccccn2)c2ccc3ccc(C)nc3c2O)cc1C (stereo not given) | -16.7% (inactive)
COC(=O)[C@@]1(C)CC[C@]2(C(=O)O[C@@H]3O[C@H](CO)[C@@H](O)[C@H](O)[C@H]3O)CC[C@]3(C)C(=CCC4[C@@]5(C)CC[C@H](O[C@@H]6O[C@H](C(=O)O)[C@@H](O)[C@H](O)[C@H]6O)C(C)(C)C5CC[C@]43C)[C@@H]2C1 (stereo not given in full) | 2.66% (inactive)
C[C@@H]1CC[C@]2(C(=O)O)CC[C@]3(C)C(=CCC4[C@]5(C)C(CC[C@]43C)C(C)(C)[C@@H](O)[C@H](O)[C@@H]5O)C2[C@]1(C)O (stereo not given in full) | -3.49% (inactive)
NC(=O)c1cccc(-c2cc(O)cc(OC(=O)NC3CCCCC3)c2)c1 | -15.7% (inactive)
C=C1CC/C=C(/CO)C(=O)C[C@@H]2[C@@H]1CC2(C)C | 0.52% (inactive)
